# study.system: Ubiquitin-conjugating enzyme E2 N (Homo sapiens)
# measurement.protocol: Ubc13/Uev1a ubiquitination inhibitors, SAR follow-up, biochemical, TR-FRET, set 2 (AID 485351)
# details: in vitro Ubc13-Uev1a ubiquitination
The source made the active and inactive calls. No rule for the calls is given here.
experimental.readout: IC50

- compound: "COC(=O)C1=C(C(=O)OC)C2([C@@H](Cc3ccccc3)Nc3ccc(OC)cc3)C=CC1O2 (some centres not stated)"
  IC50: "> 100 µM (inactive)"
- compound: "CCC[C@H](Nc1ccccc1)C12C=CC(O1)C(C(=O)OC)=C2C(=O)OC (some centres not stated)"
  IC50: "> 100 µM (inactive)"
- compound: "CCCCn1c(NC(C)=O)c(C#N)c2nc3ccccc3nc21"
  IC50: "0.669 µM"
- compound: "CCCC1=NN(c2ccccc2)C(=O)/C1=C/c1ccc(OCc2ccc(C(=O)OC)cc2)cc1"
  IC50: "> 100 µM (inactive)"
- compound: "C=CC[C@@H](Nc1ccc(C)cc1)C12C=CC(O1)C(C(=O)OC)=C2C(=O)OC (some centres not stated)"
  IC50: "> 100 µM (inactive)"

Now let's try a different one.
# lookup: IC50 of COC(=O)C1=C(C(=O)OC)C2([C@@H](Cc3ccc(C)cc3)Nc3ccccc3)C=CC1O2 (some centres not stated)
> 100 µM (inactive)
